Give IC50 for every item shown.
# Measured on: Tyrosinase (Agaricus bisporus)
# Sequence (O42713 whole entry): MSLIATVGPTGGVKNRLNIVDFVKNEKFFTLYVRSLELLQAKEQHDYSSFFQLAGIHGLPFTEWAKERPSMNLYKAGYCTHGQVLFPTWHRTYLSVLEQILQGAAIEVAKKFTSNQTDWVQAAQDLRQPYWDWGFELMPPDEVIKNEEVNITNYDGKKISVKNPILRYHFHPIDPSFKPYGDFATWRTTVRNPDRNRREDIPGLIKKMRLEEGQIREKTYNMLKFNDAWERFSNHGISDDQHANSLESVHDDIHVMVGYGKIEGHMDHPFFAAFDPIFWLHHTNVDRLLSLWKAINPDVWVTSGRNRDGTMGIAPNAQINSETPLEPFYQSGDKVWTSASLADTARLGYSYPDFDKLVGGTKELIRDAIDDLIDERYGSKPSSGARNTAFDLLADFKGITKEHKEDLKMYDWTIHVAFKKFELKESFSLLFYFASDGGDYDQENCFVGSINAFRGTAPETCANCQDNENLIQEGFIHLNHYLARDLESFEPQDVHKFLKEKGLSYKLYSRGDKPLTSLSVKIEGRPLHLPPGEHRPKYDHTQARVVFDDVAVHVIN
Answers are plain numbers, in µM.

Before answering, review these 7 worked examples.
1. Cc1ccc(C(=O)Nc2cccc(C(=O)/C=C/c3ccc4c(c3)c3ccccc3n4C)c2)cc1: 15.2
2. Cn1c2ccccc2c2cc(/C=C/C(=O)c3cccc(N)c3)ccc21: 50.5
3. Cn1c2ccccc2c2cc(/C=C/C(=O)c3cccc(NC(=O)c4cccc(Cl)c4)c3)ccc21: 56.5
4. Cn1c2ccccc2c2cc(/C=C/C(=O)c3cccc(NC(=O)C4CC4)c3)ccc21: 74.5
5. Cn1c2ccccc2c2cc(/C=C/C(=O)c3cccc(NC(=O)/C=C/c4ccccc4)c3)ccc21: 78.2
6. Cn1c2ccccc2c2cc(/C=C/C(=O)c3cccc(NC(=O)c4ccc(F)cc4)c3)ccc21: 16.5
7. Cc1cccc(C(=O)Nc2cccc(C(=O)/C=C/c3ccc4c(c3)c3ccccc3n4C)c2)c1: 29.3

Moving on to the next compound.
Input Cn1c2ccccc2c2cc(/C=C/C(=O)c3cccc(NC(=O)c4cccc(C(F)(F)F)c4)c3)ccc21 . Output IC50: 75

###

# Measured on: Tyrosinase (Mus musculus)
# Assay explanation: Inhibition of tyrosinase in mouse B16F10 cells assessed as reduction of melanin production at 20 ug/ml after 72 hrs
# Format: cell-based
# Measurement setup: B16-F10
Decide using inhibition: a value greater than or equal to 20% is satisfied, a smaller one is not satisfied.

# count of solved cases: 3
1) Cn1c2ccccc2c2cc(/C=C/C(=O)c3cccc(NC(=O)/C=C/c4ccccc4)c3)ccc21: not satisfied
2) Cn1c2ccccc2c2cc(/C=C/C(=O)c3cccc(NC(=O)c4ccccc4Cl)c3)ccc21: not satisfied
3) Cn1c2ccccc2c2cc(/C=C/C(=O)c3cccc(NC(=O)c4cccc(Cl)c4)c3)ccc21: satisfied

## Input Hello, I need to know if Cn1c2ccccc2c2cc(/C=C/C(=O)c3cccc(NC(=O)c4cccs4)c3)ccc21 has measured inhibition not below 20%. Thanks!
## Output not satisfied

## Input Hello, I need to know if Cn1c2ccccc2c2cc(/C=C/C(=O)c3cccc(NC(=O)c4cccc(C(F)(F)F)c4)c3)ccc21 has measured inhibition not below 20%. Thanks!
## Output satisfied

###

So I've got IC50 readings for Tyrosinase (Agaricus bisporus), take a look.

Before answering, review these 4 worked examples.
1) Cc1ccc(C(=O)Nc2cccc(C(=O)/C=C/c3ccc4c(c3)c3ccccc3n4C)c2)cc1: 15.1 µM
2) Cn1c2ccccc2c2cc(/C=C/C(=O)c3cccc(NC(=O)c4ccc(Cl)cc4)c3)ccc21: 17.5 µM
3) Cn1c2ccccc2c2cc(/C=C/C(=O)c3cccc(NC(=O)c4ccccc4Cl)c3)ccc21: > 100 µM
4) CC(=O)Nc1cccc(C(=O)/C=C/c2ccc3c(c2)c2ccccc2n3C)c1: 80.2 µM

Moving on to the next molecule.
Input Cn1c2ccccc2c2cc(/C=C/C(=O)c3cccc(NC(=O)c4cccc(F)c4)c3)ccc21 . Output IC50: 35.2 µM

###

# Measured on: UniProtKB O42713
# Sequence (O42713 whole entry): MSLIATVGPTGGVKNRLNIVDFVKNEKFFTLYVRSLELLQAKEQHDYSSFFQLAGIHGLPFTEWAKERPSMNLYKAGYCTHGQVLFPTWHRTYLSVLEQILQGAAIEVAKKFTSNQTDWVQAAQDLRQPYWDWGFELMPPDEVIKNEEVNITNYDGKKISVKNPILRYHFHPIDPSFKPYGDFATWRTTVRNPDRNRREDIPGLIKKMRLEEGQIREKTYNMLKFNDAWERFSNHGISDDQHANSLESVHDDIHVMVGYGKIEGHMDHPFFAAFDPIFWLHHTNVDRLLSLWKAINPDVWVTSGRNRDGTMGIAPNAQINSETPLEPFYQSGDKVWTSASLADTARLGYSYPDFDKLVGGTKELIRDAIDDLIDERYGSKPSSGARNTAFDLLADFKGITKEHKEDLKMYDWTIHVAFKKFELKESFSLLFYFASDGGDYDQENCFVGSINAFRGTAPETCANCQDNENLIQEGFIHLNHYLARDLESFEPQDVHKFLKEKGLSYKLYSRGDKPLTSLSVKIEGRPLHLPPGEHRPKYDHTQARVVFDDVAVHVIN
// boundary case: IC50 equal to 50 µM maps to not satisfied; strictly smaller maps to satisfied

# count of solved cases: 4
1) Cn1c2ccccc2c2cc(/C=C/C(=O)c3cccc(NC(=O)c4ccccc4)c3)ccc21: satisfied
2) Cn1c2ccccc2c2cc(/C=C/C(=O)c3cccc(NC(=O)c4cccc(Cl)c4)c3)ccc21: satisfied
3) Cn1c2ccccc2c2cc(/C=C/C(=O)c3cccc(NC(=O)c4ccco4)c3)ccc21: satisfied
4) Cc1cccc(C(=O)Nc2cccc(C(=O)/C=C/c3ccc4c(c3)c3ccccc3n4C)c2)c1: satisfied

Below: the item to evaluate.
## Input Item Cn1c2ccccc2c2cc(/C=C/C(=O)c3cccc(NC(=O)/C=C/c4ccccc4)c3)ccc21 : IC50 beneath 50 µM, strictly?
## Output not satisfied

###

# Measured on: Tyrosinase (Agaricus bisporus, UniProt O42713)
Measurement label: Ki (µM)
One number for each entry, in µM.

Input Cn1c2ccccc2c2cc(/C=C/C(=O)c3cccc(NC(=O)c4ccccc4)c3)ccc21 . Output Ki: 11.8

###

Target chain: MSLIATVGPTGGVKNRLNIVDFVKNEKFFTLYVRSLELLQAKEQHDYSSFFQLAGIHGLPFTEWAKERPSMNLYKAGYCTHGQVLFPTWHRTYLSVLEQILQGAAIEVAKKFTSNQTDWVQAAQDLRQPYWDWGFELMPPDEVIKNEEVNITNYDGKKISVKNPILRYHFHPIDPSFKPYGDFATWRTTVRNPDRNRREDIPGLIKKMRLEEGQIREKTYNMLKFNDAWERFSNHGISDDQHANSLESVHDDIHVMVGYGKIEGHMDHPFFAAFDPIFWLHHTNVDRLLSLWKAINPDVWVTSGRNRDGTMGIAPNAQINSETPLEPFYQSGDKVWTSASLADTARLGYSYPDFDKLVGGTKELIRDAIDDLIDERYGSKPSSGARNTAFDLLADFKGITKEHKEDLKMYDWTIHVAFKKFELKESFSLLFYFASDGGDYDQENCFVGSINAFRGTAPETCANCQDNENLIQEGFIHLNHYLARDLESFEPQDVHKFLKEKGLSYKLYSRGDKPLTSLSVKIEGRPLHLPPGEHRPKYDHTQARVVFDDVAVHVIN
// boundary case: IC50 equal to 60 µM maps to no; strictly smaller maps to yes

# count of solved cases: 3
1. CC(=O)Nc1cccc(C(=O)/C=C/c2ccc3c(c2)c2ccccc2n3C)c1: no
2. Cn1c2ccccc2c2cc(/C=C/C(=O)c3cccc(NC(=O)c4cccs4)c3)ccc21: no
3. Cn1c2ccccc2c2cc(/C=C/C(=O)c3cccc(NC(=O)c4ccccc4F)c3)ccc21: yes

## Input Item Cn1c2ccccc2c2cc(/C=C/C(=O)c3cccc(NC(=O)c4cccc(F)c4)c3)ccc21 : IC50 beneath 60 µM, strictly?
## Output yes

## Input Item Cn1c2ccccc2c2cc(/C=C/C(=O)c3cccc(NC(=O)c4ccccc4)c3)ccc21 : IC50 beneath 60 µM, strictly?
## Output yes

###

Give viability at 76 h, 20 ug/ml for every item shown.
# Assay explanation: Cytotoxicity against mouse B16F10 cells assessed as cell viability at 20 ug/ml after 76 hrs by MTT assay
# Assay type: cell-based, B16-F10
# Measurement setup: read-out: Activity
Numbers only, in %.

Before answering, review these 5 worked examples.
1) Cn1c2ccccc2c2cc(/C=C/C(=O)c3cccc(NC(=O)c4cccs4)c3)ccc21: 82.1
2) Cn1c2ccccc2c2cc(/C=C/C(=O)c3cccc(NC(=O)c4cccc(F)c4)c3)ccc21: 83.9
3) Cn1c2ccccc2c2cc(/C=C/C(=O)c3cccc(N)c3)ccc21: 76.4
4) Cn1c2ccccc2c2cc(/C=C/C(=O)c3cccc(NC(=O)c4ccc(Cl)cc4)c3)ccc21: 81.1
5) Cn1c2ccccc2c2cc(/C=C/C(=O)c3cccc(NC(=O)c4ccccc4)c3)ccc21: 86.7

For each of the items listed, what is its viability at 76 h, 20 ug/ml?
1. CC(=O)Nc1cccc(C(=O)/C=C/c2ccc3c(c2)c2ccccc2n3C)c1
2. Cc1ccc(C(=O)Nc2cccc(C(=O)/C=C/c3ccc4c(c3)c3ccccc3n4C)c2)cc1
3. Cn1c2ccccc2c2cc(/C=C/C(=O)c3cccc(NC(=O)C4CC4)c3)ccc21
4. Cn1c2ccccc2c2cc(/C=C/C(=O)c3cccc(NC(=O)c4ccc(C(C)(C)C)cc4)c3)ccc21
5. Cn1c2ccccc2c2cc(/C=C/C(=O)c3cccc(NC(=O)c4ccc(F)cc4)c3)ccc21

## Output
80.6
82.7
79.5
84
88.7

For each of the items listed, what is its viability at 76 h, 20 ug/ml?
1. Cc1ccccc1C(=O)Nc1cccc(C(=O)/C=C/c2ccc3c(c2)c2ccccc2n3C)c1
2. Cn1c2ccccc2c2cc(/C=C/C(=O)c3cccc(NC(=O)c4cccc(Cl)c4)c3)ccc21
3. Cn1c2ccccc2c2cc(/C=C/C(=O)c3cccc(NC(=O)c4cccc(C(F)(F)F)c4)c3)ccc21

## Output
60.9
80.5
80.1

For each of the items listed, what is its viability at 76 h, 20 ug/ml?
1. Cn1c2ccccc2c2cc(/C=C/C(=O)c3cccc(NC(=O)c4cccc(Br)c4)c3)ccc21
2. Cn1c2ccccc2c2cc(/C=C/C(=O)c3cccc(NC(=O)c4ccccc4F)c3)ccc21
3. Cn1c2ccccc2c2cc(/C=C/C(=O)c3cccc(NC(=O)/C=C/c4ccccc4)c3)ccc21

## Output
78.9
84.5
81

For each of the items listed, what is its viability at 76 h, 20 ug/ml?
1. Cn1c2ccccc2c2cc(/C=C/C(=O)c3cccc(NC(=O)c4ccco4)c3)ccc21
2. Cn1c2ccccc2c2cc(/C=C/C(=O)c3cccc(NC(=O)c4ccccc4Cl)c3)ccc21
3. Cc1cccc(C(=O)Nc2cccc(C(=O)/C=C/c3ccc4c(c3)c3ccccc3n4C)c2)c1

## Output
[86.6, 72, 83.6]
